# target or test system: Neprilysin (NEP 24.11) (Homo sapiens)
# Sequence (P08473 whole entry): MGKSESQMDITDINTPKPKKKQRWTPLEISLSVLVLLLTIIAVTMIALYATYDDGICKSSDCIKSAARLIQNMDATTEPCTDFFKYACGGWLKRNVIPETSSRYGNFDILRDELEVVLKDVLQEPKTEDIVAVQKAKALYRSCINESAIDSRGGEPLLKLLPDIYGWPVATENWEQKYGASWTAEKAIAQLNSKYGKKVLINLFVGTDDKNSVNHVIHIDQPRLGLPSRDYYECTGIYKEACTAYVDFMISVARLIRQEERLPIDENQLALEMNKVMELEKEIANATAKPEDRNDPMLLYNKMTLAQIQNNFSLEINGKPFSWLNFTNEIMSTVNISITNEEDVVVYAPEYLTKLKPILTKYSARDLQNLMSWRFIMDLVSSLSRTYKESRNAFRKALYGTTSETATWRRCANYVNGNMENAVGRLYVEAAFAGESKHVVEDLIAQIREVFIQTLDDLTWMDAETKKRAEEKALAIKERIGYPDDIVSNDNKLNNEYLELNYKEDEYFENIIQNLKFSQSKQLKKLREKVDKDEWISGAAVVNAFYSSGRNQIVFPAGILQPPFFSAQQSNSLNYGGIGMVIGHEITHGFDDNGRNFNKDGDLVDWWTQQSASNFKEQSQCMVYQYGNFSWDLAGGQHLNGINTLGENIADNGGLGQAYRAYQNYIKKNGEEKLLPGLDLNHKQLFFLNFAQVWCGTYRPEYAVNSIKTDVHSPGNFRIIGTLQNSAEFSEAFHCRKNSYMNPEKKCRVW
# test: Stability of compound assessed as NEP 24.11 (unknown origin)-mediated drug degradation after 24 hrs by HPLC analysis
# Type: ADME
# condition notes: NEP 24.11 (neprilysin) enzyme
Numbered stars: 1 amine (or outer) side, 2 acyl side, 3 side chain; on linkers, the order of the positions; unused ones are H or OH. Square brackets hold non-standard residues; d marks the D form. Peptide text beside a SMILES is read from it. NMeF = CN[C@@H](Cc1ccccc1)C(=O)O; Aad = N[C@@H](CCCC(=O)O)C(=O)O; Oxalyl = O=C(C(=O)[*:2])[*:1]
Could you please report measured metabolised at 24 h for the items listed next?

metabolised at 24 h for `CSCC[C@H](NC(=O)[C@H](CC(C)C)NC(=O)CNC(=O)[C@H](Cc1ccccc1)N(C)C(=O)[C@H](Cc1ccccc1)NC(=O)[C@H](CCC(=O)O)NC(=O)C(=O)O)C(N)=O` is > 70%

// below: metabolised at 24 h requested for another molecule
metabolised at 24 h for CSCC[C@H](NC(=O)[C@H](CC(C)C)NC(=O)CNC(=O)[C@H](Cc1ccccc1)N(C)C(=O)[C@H](Cc1ccccc1)NC(=O)[C@H](CCCC(=O)O)NC(=O)C(=O)O)C(N)=O (Oxalyl-[Aad]F[NMeF]GLM-NH2) is > 70%

----------
# target or test system: Neuromedin-K receptor (Homo sapiens) (UniProt P29371)
# Sequence (P29371 whole entry): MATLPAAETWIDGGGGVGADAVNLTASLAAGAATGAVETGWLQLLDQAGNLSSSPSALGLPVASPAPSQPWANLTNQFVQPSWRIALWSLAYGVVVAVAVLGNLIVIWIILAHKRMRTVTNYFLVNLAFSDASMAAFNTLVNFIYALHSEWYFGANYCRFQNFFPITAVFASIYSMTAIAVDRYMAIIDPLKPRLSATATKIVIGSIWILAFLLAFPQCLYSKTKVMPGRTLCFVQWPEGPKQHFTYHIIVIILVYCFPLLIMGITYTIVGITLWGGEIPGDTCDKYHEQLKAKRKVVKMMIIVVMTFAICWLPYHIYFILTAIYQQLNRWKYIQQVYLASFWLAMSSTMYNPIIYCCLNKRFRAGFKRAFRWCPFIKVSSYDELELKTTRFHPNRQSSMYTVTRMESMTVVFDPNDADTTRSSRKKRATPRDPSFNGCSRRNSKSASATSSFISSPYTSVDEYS
# test: Potency index, ratio of EC50 for […] to EC50 for test compound for agonist activity at human NK3 receptor
Numbered stars: 1 amine (or outer) side, 2 acyl side, 3 side chain; on linkers, the order of the positions; unused ones are H or OH. Square brackets hold non-standard residues; d marks the D form. Peptide text beside a SMILES is read from it. NMeF = CN[C@@H](Cc1ccccc1)C(=O)O; Aad = N[C@@H](CCCC(=O)O)C(=O)O; Suc = O=C(CCC(=O)[*:2])[*:1]
Could you please report measured Ratio EC50 for the items listed next?

Observed Ratio EC50, Neuromedin-K receptor (Homo sapiens) (UniProt P29371), `CSCC[C@H](NC(=O)[C@H](CC(C)C)NC(=O)CNC(=O)[C@H](Cc1ccccc1)N(C)C(=O)[C@H](Cc1ccccc1)NC(=O)[C@H](CCC(=O)O)NC(=O)C(=O)O)C(N)=O` : 7

Observed Ratio EC50, Neuromedin-K receptor (Homo sapiens) (UniProt P29371), CSCC[C@H](NC(=O)[C@H](CC(C)C)NC(=O)CNC(=O)[C@H](Cc1ccccc1)N(C)C(=O)[C@H](Cc1ccccc1)NC(=O)[C@H](CCCC(=O)O)NC(=O)CCC(=O)O)C(N)=O (Suc-[Aad]F[NMeF]GLM-NH2) : 2

Observed Ratio EC50, Neuromedin-K receptor (Homo sapiens) (UniProt P29371), `CSCC[C@H](NC(=O)[C@H](CC(C)C)NC(=O)CNC(=O)[C@H](Cc1ccccc1)N(C)C(=O)[C@H](Cc1ccccc1)NC(=O)[C@H](CCC(=O)O)NC(=O)CCC(=O)O)C(N)=O` : 2

Observed Ratio EC50, Neuromedin-K receptor (Homo sapiens) (UniProt P29371), `CSCC[C@H](NC(=O)[C@H](CC(C)C)NC(=O)CNC(=O)[C@H](Cc1ccccc1)N(C)C(=O)[C@H](Cc1ccccc1)NC(=O)[C@H](CCC(=O)O)NC(=O)[C@@H](CC(=O)O)NC(C)=O)C(N)=O` : 2

Observed Ratio EC50, Neuromedin-K receptor (Homo sapiens) (UniProt P29371), `CSCC[C@H](NC(=O)[C@H](CC(C)C)NC(=O)CNC(=O)[C@H](Cc1ccccc1)N(C)C(=O)[C@H](Cc1ccccc1)NC(=O)[C@@H](CCC(=O)O)NC(=O)C(=O)O)C(N)=O` : 7

More entries:
Observed Ratio EC50, Neuromedin-K receptor (Homo sapiens) (UniProt P29371), `CSCC[C@H](NC(=O)[C@H](CC(C)C)NC(=O)CNC(=O)[C@H](Cc1ccccc1)N(C)C(=O)[C@H](Cc1ccccc1)NC(=O)[C@H](CCC(=O)O)NC(=O)[C@H](CC(=O)O)NC(C)=O)C(N)=O` : 3
